System: CC2509 fibroblasts
assay.procedure: Cell viability, crystal violet staining, non-tumoral cells
test.conditions: read-out: IC50 concentration (± SD) at 48 h in non-tumoral cell lines; CC2509, 48 h
measured.endpoint: pIC50
pIC50 is defined as minus the log10 of a concentration measured in mol/L.

// pIC50 lookup, compound = CC(C)[NH][Pt@SP3]([I])([I])[NH]C(C)C [I5, trans-[PtI2(isopropylamine)2]] , result: 4.13
